Kindly state pIC50 for each of the entries shown.
- SYSTEM: Integrin alpha-4/beta-1 (Homo sapiens, UniProt P05556+P13612)
- Sequence (P05556 whole entry, the tested form may be a part): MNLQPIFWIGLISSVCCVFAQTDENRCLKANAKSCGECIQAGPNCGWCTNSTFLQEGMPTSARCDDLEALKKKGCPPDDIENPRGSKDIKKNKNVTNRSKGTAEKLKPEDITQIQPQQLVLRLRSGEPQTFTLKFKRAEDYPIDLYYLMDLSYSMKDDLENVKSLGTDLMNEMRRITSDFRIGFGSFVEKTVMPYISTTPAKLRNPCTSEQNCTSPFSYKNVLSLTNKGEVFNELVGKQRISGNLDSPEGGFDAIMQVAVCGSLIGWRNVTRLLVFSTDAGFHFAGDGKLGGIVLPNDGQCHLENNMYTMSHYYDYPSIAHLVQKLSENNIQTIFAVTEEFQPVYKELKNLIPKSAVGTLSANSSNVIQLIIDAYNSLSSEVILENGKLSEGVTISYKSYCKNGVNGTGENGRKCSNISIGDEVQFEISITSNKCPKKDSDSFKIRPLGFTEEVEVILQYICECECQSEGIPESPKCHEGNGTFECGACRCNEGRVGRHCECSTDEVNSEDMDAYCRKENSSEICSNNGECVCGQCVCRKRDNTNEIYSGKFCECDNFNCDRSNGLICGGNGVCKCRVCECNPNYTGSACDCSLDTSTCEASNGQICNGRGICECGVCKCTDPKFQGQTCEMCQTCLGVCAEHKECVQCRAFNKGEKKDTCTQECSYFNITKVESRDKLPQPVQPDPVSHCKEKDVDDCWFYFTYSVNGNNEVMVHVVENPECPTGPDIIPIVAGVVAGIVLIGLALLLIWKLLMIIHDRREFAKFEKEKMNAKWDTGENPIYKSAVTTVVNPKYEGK
- Sequence (P13612 whole entry, the tested form may be a part): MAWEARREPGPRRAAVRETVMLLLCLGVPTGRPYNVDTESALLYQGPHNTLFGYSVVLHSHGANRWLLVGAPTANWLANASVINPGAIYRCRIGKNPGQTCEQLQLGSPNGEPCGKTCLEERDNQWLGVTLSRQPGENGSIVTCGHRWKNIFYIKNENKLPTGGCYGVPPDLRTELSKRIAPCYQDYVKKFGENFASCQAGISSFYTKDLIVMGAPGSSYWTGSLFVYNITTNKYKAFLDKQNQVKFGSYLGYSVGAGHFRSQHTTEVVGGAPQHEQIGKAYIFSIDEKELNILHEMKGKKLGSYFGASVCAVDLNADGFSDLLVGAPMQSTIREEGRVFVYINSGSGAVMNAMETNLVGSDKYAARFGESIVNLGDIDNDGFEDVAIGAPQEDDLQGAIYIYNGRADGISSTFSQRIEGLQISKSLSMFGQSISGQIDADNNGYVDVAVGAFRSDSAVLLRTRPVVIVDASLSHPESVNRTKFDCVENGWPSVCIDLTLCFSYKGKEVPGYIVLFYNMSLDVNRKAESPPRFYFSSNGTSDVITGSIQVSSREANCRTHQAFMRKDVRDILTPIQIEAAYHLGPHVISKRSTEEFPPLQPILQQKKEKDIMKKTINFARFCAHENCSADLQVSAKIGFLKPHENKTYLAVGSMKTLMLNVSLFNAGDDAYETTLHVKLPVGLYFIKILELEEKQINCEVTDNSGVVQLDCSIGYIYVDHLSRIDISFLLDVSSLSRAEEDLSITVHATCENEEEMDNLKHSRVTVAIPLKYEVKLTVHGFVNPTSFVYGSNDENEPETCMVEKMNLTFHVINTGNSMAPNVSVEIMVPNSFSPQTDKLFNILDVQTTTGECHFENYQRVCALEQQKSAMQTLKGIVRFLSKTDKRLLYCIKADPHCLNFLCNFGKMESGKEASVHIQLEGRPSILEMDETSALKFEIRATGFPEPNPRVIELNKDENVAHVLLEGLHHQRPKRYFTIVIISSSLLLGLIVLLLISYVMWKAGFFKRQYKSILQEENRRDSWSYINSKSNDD
- ASSAY_NOTES: Inhibition of CS-1 fragment binding to Very late antigen 4 (VLA-4) expressed in Ramos cells
- Format: cell-based
Give bare numbers, as −log10 of the molar value.

>>> readout_number("CN([C@@H](CCC(=O)O)C(=O)N[C@@H](Cc1ccc(OCc2c(Cl)cccc2Cl)cc1)C(=O)O)S(=O)(=O)c1ccc2ccccc2c1")
9.00
>>> readout_number("O=C(O)CN(CC(=O)N[C@@H](Cc1ccc(OCc2c(Cl)cccc2Cl)cc1)C(=O)O)S(=O)(=O)c1cccs1")
9.10
>>> readout_number("O=C(O)CC[C@H](NS(=O)(=O)c1ccc2ccccc2c1)C(=O)N[C@@H](Cc1ccccc1)C(=O)O")
6.74

Quick request: pIC50 for each listed item, please.
1. O=C(O)CN(CC(=O)N[C@@H](Cc1ccc(OCc2c(Cl)cccc2Cl)cc1)C(=O)O)S(=O)(=O)c1ccccn1
2. O=C(O)CN(CC(=O)N[C@@H](Cc1ccc(OCc2c(Cl)cccc2Cl)cc1)C(=O)O)S(=O)(=O)c1ccc(F)cc1
3. CN([C@@H](CCC(=O)O)C(=O)N[C@@H](Cc1ccc(OCc2c(Cl)cccc2Cl)cc1)C(=O)O)S(=O)(=O)c1ccccc1
4. O=C(O)CN(CC(=O)N[C@@H](Cc1ccc(OCc2c(Cl)cccc2Cl)cc1)C(=O)O)S(=O)(=O)c1ccccc1
5. CN([C@@H](CC(=O)O)C(=O)N[C@@H](Cc1ccc(OCc2c(Cl)cccc2Cl)cc1)C(=O)O)S(=O)(=O)c1ccccc1

8.82
9.15
10.00
9.22
8.70

Which pIC50 value belongs to "O=C(O)CC[C@H](NS(=O)(=O)c1ccc2ccccc2c1)C(=O)N[C@@H](Cc1ccc(OCc2c(Cl)cccc2Cl)cc1)C(=O)O" ?
8.70

* * *

Hi there, I'd appreciate the recorded IC50 for every entry that follows.
- SYSTEM: Integrin alpha-4/beta-1 (Homo sapiens, UniProt P05556+P13612)
- ASSAY_NOTES: Inhibition of CS-1 fragment binding to Very late antigen 4 expressed in Ramos cells in 10% fetal bovine serum(FBS)
- Type: cell-based
One number for each entry, in nM.

Worked examples, 4 compounds total:
>>> readout_number("O=C(O)CN(CC(=O)N[C@@H](Cc1ccc(OCc2c(Cl)cccc2Cl)cc1)C(=O)O)S(=O)(=O)c1ccc(F)cc1")
10
>>> readout_number("O=C(O)CN(CC(=O)N[C@@H](Cc1ccc(OCc2c(Cl)cccc2Cl)cc1)C(=O)O)S(=O)(=O)c1ccccc1")
8
>>> readout_number("O=C(O)CN(CC(=O)N[C@@H](Cc1ccc(OCc2c(Cl)cccc2Cl)cc1)C(=O)O)S(=O)(=O)c1ccccn1")
10
>>> readout_number("CN([C@@H](CCC(=O)O)C(=O)N[C@@H](Cc1ccc(OCc2c(Cl)cccc2Cl)cc1)C(=O)O)S(=O)(=O)c1ccccc1")
2

Which IC50 value is on record for "O=C(O)CN(CC(=O)N[C@@H](Cc1ccc(OCc2c(Cl)cccc2Cl)cc1)C(=O)O)S(=O)(=O)c1cccs1" ?
10

* * *

- ASSAY_NOTES: Pharmacokinetic property(Vdss) in cynomolgus monkey
- Format: ADME, organism-based
- ASSAY_CONDITIONS: cercopithecidae, in vivo; read-out: Vdss
MEASURE_NAME: Vd (L/kg)
Give bare numbers, in L/kg.

Give its Vd value. Item: "O=C(O)CN(CC(=O)N[C@@H](Cc1ccc(OCc2c(Cl)cccc2Cl)cc1)C(=O)O)S(=O)(=O)c1ccccc1"
0.303
